Target: HLA-A*30:01
Test: IEDB peptide-MHC binding, purified MHC/competitive/radioactivity; filed as Kd, often an IC50 or EC50 that approximates it; bounds were set here for any values at or beyond the usual limits of such assays
Settings: source organism: Toxoplasma gondii
recorded-metric: Kd (nM)
The reply should be a number in nM, with the unit left off.

Form field Kd, entry STFWPCLLR : 1270

Form field Kd, entry AVVSLLRLLK : 8.1

====

Target: HLA-A*68:01
Assay: IEDB peptide-MHC binding, purified MHC/competitive/radioactivity; filed as Kd, often an IC50 or EC50 that approximates it; bounds were set here for any values at or beyond the usual limits of such assays
Settings: source organism: Toxoplasma gondii
recorded-metric: pKd
pKd (log units): -log10 of the concentration in mol/L.

Form field pKd, entry STFWPCLLR : 9.01

Form field pKd, entry AVVSLLRLLK : 7.03
